- TARGET ENTITY: Ribosomal protein S6 kinase alpha-6 (Homo sapiens)
- PARTICULARS: at 1 µM
READOUT KIND: residual activity (%)
Output spec: scalar in %, unitless text.

MOLECULE: CO[C@@H]1[C@H](N(C)C(=O)c2ccccc2)C[C@H]2O[C@]1(C)n1c3ccccc3c3c4c(c5c6ccccc6n2c5c31)C(=O)NC4
ENDPOINT VALUE: 0
--
MOLECULE: N#Cc1cnc2cnc(NCc3cccnc3)cc2c1Nc1ccc(F)c(Cl)c1
ENDPOINT VALUE: 97
--
MOLECULE: COc1ccc(OC)c2c(=S)c3ccccc3[nH]c12
ENDPOINT VALUE: 98
--
MOLECULE: O=C1Nc2ccccc2/C1=C1/Nc2ccccc2/C1=N\OCCC(O)CO (stereo not given)
ENDPOINT VALUE: 7

Read the next record carefully.
Field request: residual activity | item: c1ccc2c(-c3ccncc3)c[nH]c2c1
89

====

# reported residual activity; entries follow
- TARGET ENTITY: Insulin receptor (Homo sapiens)
- PARTICULARS: at 10 µM
Output spec: scalar in %, unitless text.

Some compounds with known residual activity results, for comparison:
TEST SMILES: Nc1n[nH]c2nnc(-c3c(-c4ccccc4)nn4ccccc34)cc12
UNIT NAME: %
residual activity: 25
//
TEST SMILES: COc1cc2ncnc(Nc3ccc(Oc4ccccc4)cc3)c2cc1OC
UNIT NAME: %
residual activity: 98
//
TEST SMILES: O=Nc1c(-c2c(O)[nH]c3ccccc23)[nH]c2ccccc12
UNIT NAME: %
residual activity: 10
//
TEST SMILES: Cc1cccc(-c2[nH]c(C(C)(C)C)nc2-c2ccc3c(c2)OCO3)n1
UNIT NAME: %
residual activity: 89

Field request: residual activity | item: O=C1NC(=O)/C(=C/c2ccc3c(c2)OC(F)(F)O3)S1
103

// next record CCN(CC)C(=O)c1ccc(Nc2nc(OCC3CCCCC3)c3nc[nH]c3n2)cc1
143

====

- TARGET ENTITY: Ephrin type-B receptor 1 (Homo sapiens)
- PARTICULARS: at 10 µM
# reported residual activity; entries follow

Some compounds with known residual activity results, for comparison:
TEST SMILES: O=c1c2ccccc2[nH]c(=S)n1CCN1CCC(=C(c2ccc(F)cc2)c2ccc(F)cc2)CC1
residual activity: 90%
//
TEST SMILES: Cn1cc(/C=C2\C(=O)Nc3ccc(S(N)(=O)=O)cc32)c2ccccc21
residual activity: 21%
//
TEST SMILES: Nc1n[nH]c2nnc(-c3c(-c4ccccc4)nn4ccccc34)cc12
residual activity: 87%

Field request: residual activity | item: Ic1cccc(CSc2nnc(-c3ccncc3)o2)c1
84%

====

- TARGET ENTITY: Fibroblast growth factor receptor 1 (Homo sapiens) (UniProt P11362)
- Sequence (P11362 22-822 limits assumed): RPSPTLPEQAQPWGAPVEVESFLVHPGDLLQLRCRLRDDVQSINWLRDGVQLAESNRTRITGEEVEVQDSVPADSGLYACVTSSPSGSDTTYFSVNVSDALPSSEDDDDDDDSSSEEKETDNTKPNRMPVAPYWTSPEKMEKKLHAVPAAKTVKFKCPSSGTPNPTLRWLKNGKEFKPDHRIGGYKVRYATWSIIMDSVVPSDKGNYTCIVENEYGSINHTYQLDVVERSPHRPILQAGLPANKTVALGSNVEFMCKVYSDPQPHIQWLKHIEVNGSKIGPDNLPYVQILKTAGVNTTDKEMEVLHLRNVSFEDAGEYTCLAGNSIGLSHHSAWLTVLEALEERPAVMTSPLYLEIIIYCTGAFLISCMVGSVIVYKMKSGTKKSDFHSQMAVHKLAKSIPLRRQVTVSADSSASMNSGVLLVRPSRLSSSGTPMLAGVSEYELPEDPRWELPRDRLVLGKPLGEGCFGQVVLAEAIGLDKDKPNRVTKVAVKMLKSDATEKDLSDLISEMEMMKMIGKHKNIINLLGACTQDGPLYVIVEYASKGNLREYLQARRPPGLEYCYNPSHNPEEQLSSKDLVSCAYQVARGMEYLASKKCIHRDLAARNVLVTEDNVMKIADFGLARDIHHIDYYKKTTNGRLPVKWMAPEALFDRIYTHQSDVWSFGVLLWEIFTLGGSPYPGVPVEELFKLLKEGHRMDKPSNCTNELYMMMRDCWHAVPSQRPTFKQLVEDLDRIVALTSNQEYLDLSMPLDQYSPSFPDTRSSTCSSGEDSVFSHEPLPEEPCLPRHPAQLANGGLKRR
- PARTICULARS: at 10 µM
Quick rule for you: residual activity under 80% gets yes (1), anything else gets no (0).

TEST SMILES: Ic1cccc(CSc2nnc(-c3ccncc3)o2)c1
LABEL: yes (1)
//
TEST SMILES: N#CC(C#N)=C(N)/C(C#N)=C/c1ccc(O)cc1
LABEL: yes (1)
//
TEST SMILES: COc1ccc(CNc2nc(N(CCO)CCO)nc3c2ncn3C(C)C)cc1
LABEL: yes (1)
//
TEST SMILES: Cc1ccc(NC2=CC(=O)c3sc(C)nc3C2=O)cc1
LABEL: no (0)
//
TEST SMILES: COc1ccc(S(=O)(=O)N(CCO)c2ccccc2CN(C)C/C=C/c2ccc(Cl)cc2)cc1
LABEL: yes (1)
//
TEST SMILES: c1ccc2c(-c3ccncc3)c[nH]c2c1
LABEL: no (0)

Quick check: does Oc1n[nH]c2nnc(-c3c(-c4ccccc4)nn4ccccc34)cc12 have residual activity under 80%?
no (0)

// next record Oc1c2ccccc2c2c3c(cccc13)N=N2
yes (1)

====

# reported residual activity; entries follow
- TARGET ENTITY: Aurora kinase C (Homo sapiens) (UniProt Q9UQB9)
- Sequence (Q9UQB9 whole entry): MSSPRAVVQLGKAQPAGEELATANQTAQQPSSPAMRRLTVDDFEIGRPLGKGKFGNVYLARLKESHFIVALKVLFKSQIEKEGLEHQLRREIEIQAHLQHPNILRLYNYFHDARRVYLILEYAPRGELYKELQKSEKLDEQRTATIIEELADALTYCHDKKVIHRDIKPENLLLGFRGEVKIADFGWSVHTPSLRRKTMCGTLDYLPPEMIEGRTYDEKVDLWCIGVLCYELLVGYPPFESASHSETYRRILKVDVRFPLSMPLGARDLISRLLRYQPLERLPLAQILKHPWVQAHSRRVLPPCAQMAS
- PARTICULARS: at 1 µM
Output spec: scalar in %, unitless text.

Some compounds with known residual activity results, for comparison:
TEST SMILES: CC#CC(=O)Nc1cc2c(Nc3ccc(F)c(Cl)c3)ncnc2cn1
TARGET ENTITY: Aurora kinase C (Homo sapiens) (UniProt Q9UQB9)
residual activity (%): 99
//
TEST SMILES: Oc1ccc(Nc2nc(-c3ccc(Cl)cc3)cs2)cc1
TARGET ENTITY: Aurora kinase C (Homo sapiens) (UniProt Q9UQB9)
residual activity (%): 90
//
TEST SMILES: O=C1c2ccccc2-[n+]2ccc3c([nH]c4ccccc43)c21
TARGET ENTITY: Aurora kinase C (Homo sapiens) (UniProt Q9UQB9)
residual activity (%): 83

Read the next record carefully.
Field request: residual activity | item: c1ccc2c(-c3ccncc3)c[nH]c2c1
66

====

- TARGET ENTITY: Serine/threonine-protein kinase N2 (Homo sapiens)
- PARTICULARS: at 10 µM
# reported residual activity; entries follow
Output spec: scalar in %, unitless text.

Field request: residual activity | item: O=C(Nc1cccc(Nc2cc(Nc3cccc(C(F)(F)F)c3)ncn2)c1)C1CC1
93

// next record NC(=O)c1ccc2[nH]c(-c3ccc(Oc4ccc(Cl)cc4)cc3)nc2c1
90

// next record O=Nc1c(-c2c(O)[nH]c3ccccc23)[nH]c2ccccc12
48

// next record O=c1cc(-c2cccc3c2Sc2ccccc2S3)oc(N2CCOCC2)c1
97

// next record Nc1n[nH]c2nnc(-c3c(-c4ccccc4)nn4ccccc34)cc12
76

// next record CCN(CC)C(=O)c1ccc(Nc2nc(OCC3CCCCC3)c3nc[nH]c3n2)cc1
12

====

- TARGET ENTITY: Mitogen-activated protein kinase 10 (Homo sapiens) (UniProt P53779)
- Sequence (P53779 whole entry): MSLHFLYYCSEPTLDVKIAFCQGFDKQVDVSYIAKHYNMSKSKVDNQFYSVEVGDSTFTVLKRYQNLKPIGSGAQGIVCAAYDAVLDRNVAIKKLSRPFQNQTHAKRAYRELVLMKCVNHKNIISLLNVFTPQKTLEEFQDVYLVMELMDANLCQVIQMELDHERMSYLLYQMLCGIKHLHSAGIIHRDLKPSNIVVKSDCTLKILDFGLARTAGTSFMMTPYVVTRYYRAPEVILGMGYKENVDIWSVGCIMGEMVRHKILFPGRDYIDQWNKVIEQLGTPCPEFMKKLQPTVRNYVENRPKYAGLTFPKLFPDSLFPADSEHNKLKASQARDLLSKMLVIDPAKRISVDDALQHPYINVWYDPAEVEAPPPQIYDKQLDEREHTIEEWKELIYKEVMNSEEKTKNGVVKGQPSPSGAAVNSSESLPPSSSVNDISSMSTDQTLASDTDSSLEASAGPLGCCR
- PARTICULARS: at 1 µM
READOUT KIND: residual activity (%)
Output spec: scalar in %, unitless text.

Some molecules with known residual activity results, for comparison:
TEST SMILES: COc1ccc(C(=O)Nc2sc3c(c2C(N)=O)CCCC3)cc1OC
ENDPOINT VALUE: 66
//
TEST SMILES: N#CCCc1ccc2c(c1)-c1[nH]c3ccc([N+](=O)[O-])cc3c1CC(=O)N2
ENDPOINT VALUE: 67
//
TEST SMILES: O=C(O)c1ccc2c3c1cccc3c(=O)n1c3ccccc3nc21
ENDPOINT VALUE: 78

Recall the recorded residual activity for CC(=O)O/N=C1\C(=C2\C(=O)Nc3cc(Br)ccc32)Nc2ccccc21 with Mitogen-activated protein kinase 10 (Homo sapiens) (UniProt P53779) and state it.
77

// next record Nc1ccc2ncnc(NCCc3ccc(Oc4ccccc4)cc3)c2c1
97

// next record CC(C)n1cnc2c(NCc3ccccc3)nc(NCCCO)nc21
57

// next record O=C1NC(=O)/C(=C/c2ccc3c(c2)OC(F)(F)O3)S1
81

// next record COc1cc2ncnc(Nc3ccc(Oc4ccccc4)cc3)c2cc1OC
83

// next record Cc1cccc(-c2[nH]c(C(C)(C)C)nc2-c2ccc3c(c2)OCO3)n1
90

// next record N#CC(C#N)=C(N)/C(C#N)=C/c1ccc(O)cc1
96

// next record Cc1nc(-c2ccccc2)c(-c2ccncc2)o1
63

====

# reported residual activity; entries follow
- TARGET ENTITY: RAC-gamma serine/threonine-protein kinase (Homo sapiens)
- PARTICULARS: at 1 µM

Field request: residual activity | item: O=C(Nc1cccc(Nc2nccc(Nc3cccc(C(F)(F)F)c3)n2)c1)C1CC1
89%

// next record Oc1ccc(-c2nc(-c3ccc(F)cc3)c(-c3ccncc3)[nH]2)cc1
107%

// next record COc1ccc(S(=O)(=O)N(CCO)c2ccccc2CN(C)C/C=C/c2ccc(Cl)cc2)cc1
104%

// next record COc1cc2ncnc(N3CCN(C(=O)Nc4ccc(Oc5ccccc5)cc4)CC3)c2cc1OC
94%

// next record O=C1Nc2cc(Br)ccc2/C1=C1/Nc2ccccc2/C1=N\O
83%

====

- TARGET ENTITY: Fibroblast growth factor receptor 2 (Homo sapiens)
- PARTICULARS: at 10 µM
Quick rule for you: residual activity under 90% gets Fulfilled, anything else gets Not fulfilled.

Examples with answers:
TEST SMILES: O=C1NC(=O)/C(=C/c2ccc3c(c2)OC(F)(F)O3)S1
LABEL: Not fulfilled

TEST SMILES: COc1ccc(S(=O)(=O)N(CCO)c2ccccc2CN(C)C/C=C/c2ccc(Cl)cc2)cc1
LABEL: Fulfilled

TEST SMILES: CCN(CC)C(=O)c1ccc(Nc2nc(OCC3CCCCC3)c3nc[nH]c3n2)cc1
LABEL: Fulfilled

TEST SMILES: Oc1c2ccccc2c2c3c(cccc13)N=N2
LABEL: Fulfilled

Quick check: does Cc1cc(Nc2nc(-c3ccccc3)nc3ccccc23)n[nH]1 have residual activity under 90%?
Fulfilled

Each recorded value in this set is attributed to ChEMBL document CHEMBL2218924.
